# Test system: SN12K1
# Experiment summary: cells
# Assay type: functional
# Condition label: Homo sapiens
Active and inactive are the calls of the source.
Can you tell me GI50 for the items I'm about to list?

The following molecules have reported results that may help.
O=NN(CCCl)C(=O)NCCCl    58.3 µM (inactive)
CSCSCC(N)CO.Cc1[nH]c(=O)[nH]c(=O)c1/C=C/C(=O)O    > 625 µM (inactive)
O=[N+]([O-])c1cnccc1-n1nnc2ccccc21    27.7 µM (inactive)
O=C(O)C1CCC(=O)N1S(=O)(=O)c1ccccc1 (stereo not given)    > 100 µM (inactive)

Next up:
Tell me the measured GI50 of `C1CN1c1nc(N2CC2)nc(N2CC2)n1` , please.
5.21 µM (inactive)

* * *

# Target system: UniProt:P61088
# Sequence (P61088 whole entry): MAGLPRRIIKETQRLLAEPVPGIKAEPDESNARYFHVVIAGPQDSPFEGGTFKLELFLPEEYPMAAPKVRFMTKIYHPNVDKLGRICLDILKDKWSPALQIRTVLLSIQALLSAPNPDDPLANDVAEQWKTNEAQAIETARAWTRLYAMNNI
# Assay type: functional
Active and inactive are the calls of the source.
Pick from TRUE = active, FALSE = inactive when you respond.

CCN1C(NCc2ccc(OC)cc2)=N[C@@H](CCc2ccccc2)[C@H](C(=O)NCc2ccc(OC)cc2)[C@H]1C    FALSE
Cc1ccc(Nc2nc(NCc3ccco3)c3ccccc3n2)cc1.Cl    FALSE
CCCCn1c(=O)[nH]c(=O)c2c1nc(-c1ccc(C#N)cc1)n2C1CCCC1    TRUE
CC1CN(C(=O)CCC(=O)NCCCN2CCC(Cc3ccccc3)CC2)c2cc(Cl)ccc2O1 (configuration not stated)    FALSE
NCCCC[C@@H]1NC(=O)c2cc([N+](=O)[O-])cc(F)c2NCCCC[C@@H](C(N)=O)NC(=O)[C@H](CCC(N)=O)NC1=O    FALSE

Please let me know the test result on file for `COC(=O)C1=C(c2ccc(OCc3ccccc3)cc2)C[C@@H]2CC[C@H]1N2C(=O)NC1CCN(Cc2ccccc2)CC1` .
FALSE

Another compound to look at: `COc1ccc(CNn2c(C)nc3ccccc3c2=O)cc1`
FALSE

* * *

Would you mind telling me the reported IC50 of each entry?
# Target system: Genome polyprotein (dengue virus type 2)
# Sequence (P29990 2492-3391 limits assumed): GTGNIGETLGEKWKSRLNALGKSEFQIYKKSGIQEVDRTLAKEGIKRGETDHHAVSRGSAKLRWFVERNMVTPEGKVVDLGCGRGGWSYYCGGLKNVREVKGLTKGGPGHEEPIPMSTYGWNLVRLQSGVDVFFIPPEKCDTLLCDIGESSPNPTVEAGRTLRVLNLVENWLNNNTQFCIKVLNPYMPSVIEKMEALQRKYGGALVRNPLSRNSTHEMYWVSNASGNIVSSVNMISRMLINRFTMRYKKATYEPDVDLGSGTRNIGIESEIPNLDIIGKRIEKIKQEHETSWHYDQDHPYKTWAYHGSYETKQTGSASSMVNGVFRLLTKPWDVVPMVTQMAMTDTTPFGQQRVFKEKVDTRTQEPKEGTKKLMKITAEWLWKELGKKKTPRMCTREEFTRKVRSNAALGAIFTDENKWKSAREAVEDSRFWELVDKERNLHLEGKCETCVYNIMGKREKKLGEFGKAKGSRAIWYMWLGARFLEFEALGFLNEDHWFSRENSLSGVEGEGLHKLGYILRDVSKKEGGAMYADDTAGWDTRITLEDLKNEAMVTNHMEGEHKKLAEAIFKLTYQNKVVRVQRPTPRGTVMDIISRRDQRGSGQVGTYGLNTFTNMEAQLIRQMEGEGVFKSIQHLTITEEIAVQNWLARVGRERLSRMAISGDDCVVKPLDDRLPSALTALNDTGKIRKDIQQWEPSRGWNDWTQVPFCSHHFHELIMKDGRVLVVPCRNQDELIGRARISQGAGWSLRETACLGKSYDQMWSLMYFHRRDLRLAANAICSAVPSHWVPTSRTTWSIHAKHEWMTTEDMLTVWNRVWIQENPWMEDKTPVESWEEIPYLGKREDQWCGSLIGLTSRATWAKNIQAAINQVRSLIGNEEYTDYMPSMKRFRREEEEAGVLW
# Experiment summary: flavivirus cap methylation enzyme inhibition – biochemical, confirmation dose response, primary screen (AID 588689)
# Type: functional
Active and inactive are the calls of the source.

CC(C)c1ccc(S(=O)(=O)/N=C2\C=C(NS(=O)(=O)c3ccccc3)C(=O)c3ccccc32)cc1    25.7 µM (active)
COc1cc(O)cc2cc3c(c(O)c12)C(=O)CC(C)(O)O3 (stereo not given)    38.1 µM (active)
COc1cccc(/C=C2\SC(=S)N(NS(=O)(=O)c3ccc(C)cc3)C2=O)c1OC    36.2 µM (active)
C/N=c1\scc(C)n1/N=C/c1ccc(O)c(O)c1O    13.9 µM (active)

Next item in the queue.
If you can, please state the reported IC50 value of `NC(=O)COc1ccc(/C=C2\C(=O)ON=C2c2ccccc2)cc1` .
67.7 µM (active)

* * *

# Target system: Peroxisome proliferator-activated receptor gamma/Nuclear receptor coactivator 3 (Homo sapiens, UniProt P37231)
# Sequence (P37231 whole entry): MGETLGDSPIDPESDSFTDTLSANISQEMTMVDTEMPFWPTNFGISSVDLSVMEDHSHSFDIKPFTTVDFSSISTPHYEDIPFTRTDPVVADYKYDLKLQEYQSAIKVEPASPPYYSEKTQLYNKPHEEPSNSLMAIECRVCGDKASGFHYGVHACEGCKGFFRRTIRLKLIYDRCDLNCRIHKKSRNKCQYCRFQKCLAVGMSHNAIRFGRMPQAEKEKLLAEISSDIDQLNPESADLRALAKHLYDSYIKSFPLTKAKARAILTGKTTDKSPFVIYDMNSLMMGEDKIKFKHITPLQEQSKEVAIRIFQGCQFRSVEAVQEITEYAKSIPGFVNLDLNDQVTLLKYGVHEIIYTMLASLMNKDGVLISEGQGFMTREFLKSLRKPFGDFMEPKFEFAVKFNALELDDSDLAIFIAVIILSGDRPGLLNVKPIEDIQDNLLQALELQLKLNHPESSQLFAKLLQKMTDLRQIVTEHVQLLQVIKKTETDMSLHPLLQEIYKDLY
# Sequence (Q9Y6Q9 whole entry, further chain): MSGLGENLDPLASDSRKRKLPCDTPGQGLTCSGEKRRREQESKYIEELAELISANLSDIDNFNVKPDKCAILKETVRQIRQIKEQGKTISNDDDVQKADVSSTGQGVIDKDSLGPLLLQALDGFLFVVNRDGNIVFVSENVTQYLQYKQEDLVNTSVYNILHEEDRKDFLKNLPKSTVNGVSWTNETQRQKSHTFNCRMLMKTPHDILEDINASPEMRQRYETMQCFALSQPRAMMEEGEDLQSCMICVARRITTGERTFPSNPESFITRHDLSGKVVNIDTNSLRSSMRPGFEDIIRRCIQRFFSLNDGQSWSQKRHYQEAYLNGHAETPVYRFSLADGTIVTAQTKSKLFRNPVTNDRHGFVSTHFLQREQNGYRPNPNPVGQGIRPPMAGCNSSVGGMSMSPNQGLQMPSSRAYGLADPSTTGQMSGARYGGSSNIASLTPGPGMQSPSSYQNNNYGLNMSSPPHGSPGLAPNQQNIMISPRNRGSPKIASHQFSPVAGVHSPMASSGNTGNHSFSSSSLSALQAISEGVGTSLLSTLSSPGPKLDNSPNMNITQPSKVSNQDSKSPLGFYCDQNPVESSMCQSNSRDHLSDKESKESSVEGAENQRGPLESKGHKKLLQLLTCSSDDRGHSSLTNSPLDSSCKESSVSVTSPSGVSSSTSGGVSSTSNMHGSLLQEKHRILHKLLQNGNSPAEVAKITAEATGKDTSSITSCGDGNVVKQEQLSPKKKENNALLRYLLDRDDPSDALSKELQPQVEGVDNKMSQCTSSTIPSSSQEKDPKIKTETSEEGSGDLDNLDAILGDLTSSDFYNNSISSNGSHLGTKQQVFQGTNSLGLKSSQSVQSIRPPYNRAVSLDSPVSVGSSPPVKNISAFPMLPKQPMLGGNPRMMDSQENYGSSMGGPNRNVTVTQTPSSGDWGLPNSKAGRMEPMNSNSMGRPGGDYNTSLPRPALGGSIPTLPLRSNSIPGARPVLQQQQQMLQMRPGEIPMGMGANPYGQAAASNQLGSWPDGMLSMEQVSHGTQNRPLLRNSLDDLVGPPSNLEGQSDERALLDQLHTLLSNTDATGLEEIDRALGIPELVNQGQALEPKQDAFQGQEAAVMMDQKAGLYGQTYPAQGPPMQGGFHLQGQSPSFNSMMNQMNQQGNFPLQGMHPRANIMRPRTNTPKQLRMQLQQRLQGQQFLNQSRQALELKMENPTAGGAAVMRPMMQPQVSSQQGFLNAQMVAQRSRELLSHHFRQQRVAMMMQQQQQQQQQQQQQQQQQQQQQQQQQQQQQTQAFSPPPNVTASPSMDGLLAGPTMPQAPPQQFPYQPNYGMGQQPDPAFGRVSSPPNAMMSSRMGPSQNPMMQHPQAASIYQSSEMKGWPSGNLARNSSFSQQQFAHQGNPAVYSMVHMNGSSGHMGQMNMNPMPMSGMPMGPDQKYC
# Experiment summary: TR-FRET dose response biochemical High Throughput Screening assay for agonists of the steroid receptor coactivator 3 (SRC-3) recruitment by the peroxisome proliferator-activated receptor gamma (PPAR gamma): non-selective agonists. [Related pubchem assays: 1301 (Confirmation screen.), 1048 (Primary screen.)]
# Format: functional
Calls of active or inactive are those of the source.
Provide the reported EC50 of each item.

Use the examples below as a reference point.
COc1cccc(C2C(C(=O)c3cc4ccccc4o3)=C(O)C(=O)N2c2cc(C)on2)c1OC (centres undefined)    > 79.4 µM (not active)
COc1ccc(CC(=O)NNC(=O)COc2ccc3ccccc3c2)cc1    3.65 µM (active)
CC(C)COC(=O)CNc1nnc(S)nc1O    37.9 µM (not active)

Pending compound:
Quick one: EC50 of `O=C(CSc1ncnc2c1oc1ccccc12)Nc1cccc(C(F)(F)F)c1` ?
> 79.4 µM (not active)
